measurement target: CBP (Homo sapiens (Human))
Sequence (Q92793 whole entry): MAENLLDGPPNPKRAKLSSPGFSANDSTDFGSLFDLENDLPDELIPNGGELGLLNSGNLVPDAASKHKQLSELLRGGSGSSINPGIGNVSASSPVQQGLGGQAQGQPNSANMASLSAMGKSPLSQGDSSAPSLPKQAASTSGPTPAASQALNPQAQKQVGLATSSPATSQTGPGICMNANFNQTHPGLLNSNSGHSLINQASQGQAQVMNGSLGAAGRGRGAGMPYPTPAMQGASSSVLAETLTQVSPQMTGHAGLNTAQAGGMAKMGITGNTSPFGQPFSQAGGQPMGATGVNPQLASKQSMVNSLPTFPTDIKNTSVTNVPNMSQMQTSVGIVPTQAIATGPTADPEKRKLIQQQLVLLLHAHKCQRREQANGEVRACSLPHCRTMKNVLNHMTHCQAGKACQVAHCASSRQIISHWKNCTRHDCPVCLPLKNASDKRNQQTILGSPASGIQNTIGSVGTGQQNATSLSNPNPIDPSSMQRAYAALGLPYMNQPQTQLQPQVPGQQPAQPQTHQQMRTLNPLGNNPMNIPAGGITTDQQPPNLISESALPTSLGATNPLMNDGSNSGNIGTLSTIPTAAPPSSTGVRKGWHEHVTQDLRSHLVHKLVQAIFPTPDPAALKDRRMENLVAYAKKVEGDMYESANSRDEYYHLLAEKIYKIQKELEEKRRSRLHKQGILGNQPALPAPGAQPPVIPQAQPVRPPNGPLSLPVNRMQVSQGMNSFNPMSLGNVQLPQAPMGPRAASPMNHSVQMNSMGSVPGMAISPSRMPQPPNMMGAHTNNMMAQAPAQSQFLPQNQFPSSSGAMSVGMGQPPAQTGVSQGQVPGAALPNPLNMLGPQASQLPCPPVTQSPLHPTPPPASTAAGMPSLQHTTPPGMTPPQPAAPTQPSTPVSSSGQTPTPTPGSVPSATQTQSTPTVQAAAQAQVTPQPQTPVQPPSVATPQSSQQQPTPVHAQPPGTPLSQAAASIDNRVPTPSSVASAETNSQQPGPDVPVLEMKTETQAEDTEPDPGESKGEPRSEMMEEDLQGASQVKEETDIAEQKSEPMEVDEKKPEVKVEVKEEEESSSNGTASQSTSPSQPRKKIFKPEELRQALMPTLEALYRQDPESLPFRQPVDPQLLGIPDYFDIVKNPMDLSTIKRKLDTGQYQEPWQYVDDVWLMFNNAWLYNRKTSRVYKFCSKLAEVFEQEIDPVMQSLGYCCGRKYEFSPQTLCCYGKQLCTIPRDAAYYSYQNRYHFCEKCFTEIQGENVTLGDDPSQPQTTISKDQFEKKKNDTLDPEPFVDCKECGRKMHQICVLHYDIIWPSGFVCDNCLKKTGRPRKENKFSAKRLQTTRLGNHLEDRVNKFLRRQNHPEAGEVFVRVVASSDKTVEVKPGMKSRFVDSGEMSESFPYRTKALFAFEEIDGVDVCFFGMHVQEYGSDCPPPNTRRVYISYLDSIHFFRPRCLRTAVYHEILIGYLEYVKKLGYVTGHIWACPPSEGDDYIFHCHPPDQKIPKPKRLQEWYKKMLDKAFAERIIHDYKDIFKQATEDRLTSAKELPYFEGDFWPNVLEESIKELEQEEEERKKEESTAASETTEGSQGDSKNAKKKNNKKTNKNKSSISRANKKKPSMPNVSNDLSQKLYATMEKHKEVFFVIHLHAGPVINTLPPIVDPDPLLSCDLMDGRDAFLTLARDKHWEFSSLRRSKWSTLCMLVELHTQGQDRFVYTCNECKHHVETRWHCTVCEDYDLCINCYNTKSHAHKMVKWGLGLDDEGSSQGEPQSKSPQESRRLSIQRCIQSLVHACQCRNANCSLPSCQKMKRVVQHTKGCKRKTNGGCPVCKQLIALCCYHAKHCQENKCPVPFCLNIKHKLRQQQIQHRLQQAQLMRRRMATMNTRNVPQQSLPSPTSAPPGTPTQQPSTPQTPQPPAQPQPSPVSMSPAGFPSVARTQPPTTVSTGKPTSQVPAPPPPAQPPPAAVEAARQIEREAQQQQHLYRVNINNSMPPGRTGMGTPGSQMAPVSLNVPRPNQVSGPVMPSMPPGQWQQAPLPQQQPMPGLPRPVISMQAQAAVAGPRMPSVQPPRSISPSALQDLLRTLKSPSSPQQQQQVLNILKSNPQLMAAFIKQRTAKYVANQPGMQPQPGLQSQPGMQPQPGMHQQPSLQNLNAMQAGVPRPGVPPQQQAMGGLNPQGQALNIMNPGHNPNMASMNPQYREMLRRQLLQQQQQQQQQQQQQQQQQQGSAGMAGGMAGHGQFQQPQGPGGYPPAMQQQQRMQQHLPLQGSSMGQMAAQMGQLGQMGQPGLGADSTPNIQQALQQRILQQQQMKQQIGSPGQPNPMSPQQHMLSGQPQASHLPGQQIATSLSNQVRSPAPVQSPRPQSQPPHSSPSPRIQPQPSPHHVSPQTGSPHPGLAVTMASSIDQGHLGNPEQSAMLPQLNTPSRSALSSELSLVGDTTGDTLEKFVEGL
assay comment: CBP TR-FRET binding assay;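 further: displacement of a biotinylated small-molecule ligand from purified recombinant CBP read by TR-FRET, DMSO-only wells as control, IC50 from nonlinear curve fit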
measurement setup: His/Flag tagged CBP 4 nM, biotin-ligand 60 nM; read-out: CBP HTRF IC50
pIC50: −log10 of the molar value.
parameter measured: pIC50

1. CNC(=O)N1CCOc2c(cc(-c3ccccc3C)cc2OC)C1 : 6.39

I = CNC(=O)c1cccc2oc(-c3cccc4cc(-c5cnn(C)c5)ncc34)nc12
II = CNC(=O)N1CCOc2ccc(-c3c(C)ccc4[nH]ncc34)cc2C1
III = Cn1cc(-c2cc3c(cc2C(F)F)N(c2ccc4c(c2)n(C)c(=O)n4C)CCC3)cn1
rank_up(items): orders items by reported pIC50 in ascending numerical order. Please reply with the labels ordered as requested. Many thanks. I, II, III

Data origin, for the record: patent US10696655B2
